# subject-of-test: α4β7 integrin (Homo sapiens (Human), UniProt P13612+P26010)
# Sequence (P13612 34-1032): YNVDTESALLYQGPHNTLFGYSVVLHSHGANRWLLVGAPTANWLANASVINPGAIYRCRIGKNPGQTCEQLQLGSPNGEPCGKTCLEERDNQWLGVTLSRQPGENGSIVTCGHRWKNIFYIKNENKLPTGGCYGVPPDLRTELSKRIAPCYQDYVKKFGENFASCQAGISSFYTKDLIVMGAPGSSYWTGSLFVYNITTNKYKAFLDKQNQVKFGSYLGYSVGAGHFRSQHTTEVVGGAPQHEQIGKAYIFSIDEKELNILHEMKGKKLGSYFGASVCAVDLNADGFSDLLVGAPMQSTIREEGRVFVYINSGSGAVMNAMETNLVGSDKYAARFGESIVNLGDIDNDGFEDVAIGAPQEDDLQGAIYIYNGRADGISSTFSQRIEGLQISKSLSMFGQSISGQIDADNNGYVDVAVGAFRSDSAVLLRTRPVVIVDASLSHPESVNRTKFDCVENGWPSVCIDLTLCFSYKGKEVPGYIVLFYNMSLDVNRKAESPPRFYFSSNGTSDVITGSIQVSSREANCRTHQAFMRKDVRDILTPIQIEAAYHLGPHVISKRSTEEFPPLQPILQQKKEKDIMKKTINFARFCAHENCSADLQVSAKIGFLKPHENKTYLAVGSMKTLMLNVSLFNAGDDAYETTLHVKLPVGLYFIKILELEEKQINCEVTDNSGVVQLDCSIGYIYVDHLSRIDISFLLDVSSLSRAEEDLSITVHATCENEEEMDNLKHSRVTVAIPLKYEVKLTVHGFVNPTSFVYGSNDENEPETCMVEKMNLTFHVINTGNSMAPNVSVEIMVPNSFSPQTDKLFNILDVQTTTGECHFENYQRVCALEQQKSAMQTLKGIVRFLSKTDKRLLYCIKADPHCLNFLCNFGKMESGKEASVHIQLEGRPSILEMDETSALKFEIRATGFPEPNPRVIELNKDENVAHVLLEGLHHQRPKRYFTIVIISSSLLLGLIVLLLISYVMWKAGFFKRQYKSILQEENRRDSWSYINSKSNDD
# Sequence (P26010 20-798): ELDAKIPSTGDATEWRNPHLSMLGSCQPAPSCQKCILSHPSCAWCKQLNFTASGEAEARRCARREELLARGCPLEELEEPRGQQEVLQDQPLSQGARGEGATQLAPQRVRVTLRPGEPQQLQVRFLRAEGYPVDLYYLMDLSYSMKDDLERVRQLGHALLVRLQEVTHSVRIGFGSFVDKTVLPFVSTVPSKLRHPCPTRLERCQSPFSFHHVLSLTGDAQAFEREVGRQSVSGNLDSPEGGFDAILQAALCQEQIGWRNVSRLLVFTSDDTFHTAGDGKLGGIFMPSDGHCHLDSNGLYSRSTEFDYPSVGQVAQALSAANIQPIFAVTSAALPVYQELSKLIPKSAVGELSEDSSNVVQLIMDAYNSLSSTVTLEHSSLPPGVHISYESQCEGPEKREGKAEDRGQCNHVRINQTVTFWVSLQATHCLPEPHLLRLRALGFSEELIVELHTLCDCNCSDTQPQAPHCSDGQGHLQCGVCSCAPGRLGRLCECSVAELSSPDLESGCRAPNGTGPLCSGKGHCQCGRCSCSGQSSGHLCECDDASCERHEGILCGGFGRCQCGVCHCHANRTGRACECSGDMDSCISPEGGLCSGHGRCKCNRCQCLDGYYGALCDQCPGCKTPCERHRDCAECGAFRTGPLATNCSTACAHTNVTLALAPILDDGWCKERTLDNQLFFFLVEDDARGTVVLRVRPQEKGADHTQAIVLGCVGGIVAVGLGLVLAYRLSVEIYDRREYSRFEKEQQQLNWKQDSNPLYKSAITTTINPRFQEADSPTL
# test-details: α4β7 Integrin Cell Capture Assay
# Format: cell-based
# applied-conditions: Table 2; capture of α4β7 expressing RPM18866 cells on MadCAM-1 extracellular domain-coated plate
pEC50: −log10 of the molar value.
measurement-name: pEC50

Example cases with answers are listed next.
molecule	pEC50
Cc1c(-c2ccc(C[C@H](NC(=O)c3c(F)cc(N[C@H](C)C(F)(F)F)cc3F)C(=O)O)c3cccnc23)c(=O)n(C)c(=O)n1C [Example 340]	9.22
COc1ccc(C)nc1-c1ccc(C[C@H](NC(=O)c2c(F)cc(N3CCOC[C@H]3C(F)(F)F)cc2F)C(=O)O)c2cccnc12 [Example 291]	8.16
CC[C@@H](Nc1cc(F)c(C(=O)N[C@@H](Cc2ccc(-c3nccc(C)c3Cl)c3ncccc23)C(=O)O)c(F)c1)C(F)(F)F [Example 325]	7.73
CC[C@@H](Nc1cc(F)c(C(=O)N[C@@H](Cc2ccc(-c3c(C)n(C)c(=O)n(C)c3=O)c3ncccc23)C(=O)O)c(F)c1)C(F)(F)F (atropisomer, axis not shown) [Example 234]	8.64
CC[C@@H](Nc1cc(F)c(C(=O)N[C@@H](Cc2ccc(-c3c(C)c(C(F)(F)F)cn(C)c3=O)c3ncccc23)C(=O)O)c(F)c1)C(F)(F)F [Example 188]	8.92

A. Cc1c(-c2ccc(C[C@H](NC(=O)c3c(F)cc(N4CCS(=O)(=O)[C@@H](C)C4)cc3F)C(=O)O)c3cccnc23)c(=O)n(C)c(=O)n1C [Example 226]
B. Cn1c(=O)c(-c2ccc(C[C@H](NC(=O)c3c(F)cc(NS(=O)(=O)C(F)F)cc3F)C(=O)O)c3cccnc23)cc2ccccc21 [Example 153]
## Task Between A and B , which one shows the larger pEC50 value? Record your answer as the label of the chosen record.
## Result B

a. Cc1ccnc(-c2ccc(C[C@H](NC(=O)c3c(F)cc(N4CCOC[C@@H]4C(F)(F)F)cc3F)C(=O)O)c3cccnc23)c1C [Example 271]
b. C[C@@H](Nc1cc(F)c(C(=O)N[C@@H](Cc2ccc(-c3cn(C)c(=O)n(C)c3=O)c3ncccc23)C(=O)O)c(F)c1)C(F)(F)F [Example 211]
## Task I would appreciate it if you could say which entry, a or b , has the lower pEC50 value. Record your answer as the label of the chosen record.
## Result a
(a: 8.35, b: 8.72)

a. Cc1cc(C(F)(F)F)c(-c2ccc(C[C@H](NC(=O)c3c(F)cc(N4CC5CCC4CO5)cc3F)C(=O)O)c3cccnc23)c(=O)n1C (stereo partly drawn) [Example 257]
b. C[C@@H](Nc1cc(F)c(C(=O)N[C@@H](Cc2ccc(-c3c(Cl)cc(C#N)cc3Cl)c3ncccc23)C(=O)O)c(F)c1)C(F)(F)F [Example 288]
## Task Between a and b , which one shows the larger pEC50 value? Record your answer as the label of the chosen record.
## Result a
(a: 8.46, b: 8.24)

---

# subject-of-test: α4β7 integrin (Homo sapiens (Human), UniProt P13612+P26010)
# test-details: α4β7 Integrin Cell Capture Assay
# Assay type: cell-based
# applied-conditions: Table 1; capture of α4β7 expressing RPM18866 cells on MadCAM-1 extracellular domain-coated plate
measurement-name: EC50 (nM)

Example cases with answers are listed next.
>>> print(df.to_string())
                            chemical_string  data_value
0  CCOCc1cc(OC)c(-c2ccc(C[C@H](NC(=O)c3c(F)cccc3F)C(=O)O)c3cccnc23)c(OC)c1           9
1  N#Cc1ccc(-c2ccc(C[C@H](NC(=O)c3c(F)cccc3F)C(=O)O)c3cccnc23)c(Cl)c1        63.8

a. COc1cc(C)n(C)c(=O)c1-c1ccc(C[C@H](NC(=O)c2c(F)cc(N3CCOC[C@@H]3C(F)(F)F)cc2F)C(=O)O)c2cccnc12
b. O=C(N[C@@H](Cc1ccc(-c2ccc(C(F)(F)F)cn2)c2ncccc12)C(=O)O)c1c(F)cc(NS(=O)(=O)c2ccc(-c3ccnc(F)c3)cc2)cc1F
c. N#Cc1ccc(-c2ccc(C[C@H](NC(=O)c3c(F)cc(NC(C(F)(F)F)C(F)(F)F)cc3F)C(=O)O)c3cccnc23)c(Cl)c1
d. Cc1cc(C(F)(F)F)c(-c2ccc(C[C@H](NC(=O)c3c(F)cc(N4CCCC[C@@H]4C(F)(F)F)cc3F)C(=O)O)c3cccnc23)c(=O)n1C
## Task Ascending sort, EC50. Please respond with the labels ordered as the question requires.
## Result a, d, c, b
(a: 0.3 nM, d: 0.7 nM, c: 8.2 nM, b: 30 nM)

All figures here come from patent US11116760B2.
